Data provenance is patent US20240376151A1.

- assay-target: human PD-L1 (residues 18-239) with C-terminal human IgG Fc-Avi tag (human), Q9NZQ7
- Sequence (Q9NZQ7 18-239): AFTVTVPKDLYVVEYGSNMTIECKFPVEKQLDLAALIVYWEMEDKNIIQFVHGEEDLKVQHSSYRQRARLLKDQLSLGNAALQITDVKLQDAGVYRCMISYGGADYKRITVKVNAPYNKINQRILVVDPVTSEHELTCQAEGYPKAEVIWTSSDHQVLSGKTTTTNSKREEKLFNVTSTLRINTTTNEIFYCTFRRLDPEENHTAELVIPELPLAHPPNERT
- assay-info: SPR
observation-type: Kd (µM)
Your answer should be a plain number; it is taken to be in µM.

Ask | What value of measured Kd is listed for DPAAADCQWAAFLCRVY (modifications not checked) [FP30790] ?
Reply | 10
